These measurements were taken from the Kinase Knowledgebase extract (Sharma et al. 2016).

# assayed_system: PIK3CG (human) (UniProt P48736)
# Sequence (P48736 whole entry, looked up): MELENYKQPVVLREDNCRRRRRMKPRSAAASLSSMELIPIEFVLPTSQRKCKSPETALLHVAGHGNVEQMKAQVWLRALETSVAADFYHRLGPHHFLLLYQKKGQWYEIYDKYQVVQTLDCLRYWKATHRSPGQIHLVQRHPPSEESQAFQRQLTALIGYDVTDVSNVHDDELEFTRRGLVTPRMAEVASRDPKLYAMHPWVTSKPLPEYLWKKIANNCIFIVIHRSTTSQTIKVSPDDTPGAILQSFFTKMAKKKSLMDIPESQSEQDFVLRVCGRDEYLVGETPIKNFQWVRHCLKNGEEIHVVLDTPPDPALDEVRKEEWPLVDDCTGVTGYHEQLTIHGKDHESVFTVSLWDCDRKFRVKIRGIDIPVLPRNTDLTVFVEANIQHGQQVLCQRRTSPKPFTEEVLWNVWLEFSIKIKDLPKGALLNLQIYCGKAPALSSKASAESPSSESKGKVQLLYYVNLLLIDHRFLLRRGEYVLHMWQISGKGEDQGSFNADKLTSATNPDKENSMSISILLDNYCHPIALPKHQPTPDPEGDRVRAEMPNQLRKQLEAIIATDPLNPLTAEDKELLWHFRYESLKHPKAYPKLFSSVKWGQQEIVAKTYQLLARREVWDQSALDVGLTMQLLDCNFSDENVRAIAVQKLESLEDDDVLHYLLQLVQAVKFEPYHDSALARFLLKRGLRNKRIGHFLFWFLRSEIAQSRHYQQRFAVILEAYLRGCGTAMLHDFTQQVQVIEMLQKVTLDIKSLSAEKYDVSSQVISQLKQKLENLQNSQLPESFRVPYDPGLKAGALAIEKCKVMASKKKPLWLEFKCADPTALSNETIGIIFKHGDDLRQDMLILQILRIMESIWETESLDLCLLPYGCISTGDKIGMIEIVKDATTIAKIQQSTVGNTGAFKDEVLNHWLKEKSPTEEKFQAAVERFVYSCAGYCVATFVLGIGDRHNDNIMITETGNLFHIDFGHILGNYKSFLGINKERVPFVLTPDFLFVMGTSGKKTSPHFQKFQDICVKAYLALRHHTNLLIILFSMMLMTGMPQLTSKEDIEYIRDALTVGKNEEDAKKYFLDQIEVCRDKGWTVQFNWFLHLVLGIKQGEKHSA
# assay_protocol: Enzyme Assay
Catalogue of pIC50 values
Interpret pIC50 as the negative base-10 log of the concentration measured in mol/L.

>>> numeric_readout("Cc1c(F)ccc2nc([C@@H]3CCCN3c3ncnc(N)c3C#N)n(-c3ccccc3)c(=O)c12")
6.92
>>> numeric_readout("CO[C@H]1C[C@@H](c2nc3cccc(Cl)c3c(=O)n2-c2ccccc2)N(c2ncnc3[nH]cnc23)C1")
7.57
>>> numeric_readout("Cc1nc(N)nc(N2C[C@@H](F)C[C@H]2c2nc3cccc(C(F)(F)F)c3c(=O)n2-c2cccnc2)c1C#N")
7.46

Look up and report pIC50, with PIK3CG (human) (UniProt P48736) as system, for CO[C@H]1C[C@@H](c2nc3cccc(Cl)c3c(=O)n2-c2ccccc2)N(c2nc(N)nc(C)c2C#N)C1 7.52

Look up and report pIC50, with PIK3CG (human) (UniProt P48736) as system, for Cc1nc(N)nc(N2C[C@@H](O)C[C@H]2c2nc3cccc(OC(F)F)c3c(=O)n2-c2ccccc2)c1C#N 6.85

Look up and report pIC50, with PIK3CG (human) (UniProt P48736) as system, for O=c1c2c(C(F)(F)F)cccc2nc([C@@H]2C[C@H](O)CN2c2ncnc3[nH]cnc23)n1-c1ccccc1 6.68

Look up and report pIC50, with PIK3CG (human) (UniProt P48736) as system, for Cc1nc(N)nc(N2CCC[C@H]2c2nc3cccc(S(C)(=O)=O)c3c(=O)n2-c2ccccc2)c1C#N 7.12

====

# assayed_system: PIK3CD (Human) (UniProt O00329)
# Sequence (O00329 whole entry, looked up): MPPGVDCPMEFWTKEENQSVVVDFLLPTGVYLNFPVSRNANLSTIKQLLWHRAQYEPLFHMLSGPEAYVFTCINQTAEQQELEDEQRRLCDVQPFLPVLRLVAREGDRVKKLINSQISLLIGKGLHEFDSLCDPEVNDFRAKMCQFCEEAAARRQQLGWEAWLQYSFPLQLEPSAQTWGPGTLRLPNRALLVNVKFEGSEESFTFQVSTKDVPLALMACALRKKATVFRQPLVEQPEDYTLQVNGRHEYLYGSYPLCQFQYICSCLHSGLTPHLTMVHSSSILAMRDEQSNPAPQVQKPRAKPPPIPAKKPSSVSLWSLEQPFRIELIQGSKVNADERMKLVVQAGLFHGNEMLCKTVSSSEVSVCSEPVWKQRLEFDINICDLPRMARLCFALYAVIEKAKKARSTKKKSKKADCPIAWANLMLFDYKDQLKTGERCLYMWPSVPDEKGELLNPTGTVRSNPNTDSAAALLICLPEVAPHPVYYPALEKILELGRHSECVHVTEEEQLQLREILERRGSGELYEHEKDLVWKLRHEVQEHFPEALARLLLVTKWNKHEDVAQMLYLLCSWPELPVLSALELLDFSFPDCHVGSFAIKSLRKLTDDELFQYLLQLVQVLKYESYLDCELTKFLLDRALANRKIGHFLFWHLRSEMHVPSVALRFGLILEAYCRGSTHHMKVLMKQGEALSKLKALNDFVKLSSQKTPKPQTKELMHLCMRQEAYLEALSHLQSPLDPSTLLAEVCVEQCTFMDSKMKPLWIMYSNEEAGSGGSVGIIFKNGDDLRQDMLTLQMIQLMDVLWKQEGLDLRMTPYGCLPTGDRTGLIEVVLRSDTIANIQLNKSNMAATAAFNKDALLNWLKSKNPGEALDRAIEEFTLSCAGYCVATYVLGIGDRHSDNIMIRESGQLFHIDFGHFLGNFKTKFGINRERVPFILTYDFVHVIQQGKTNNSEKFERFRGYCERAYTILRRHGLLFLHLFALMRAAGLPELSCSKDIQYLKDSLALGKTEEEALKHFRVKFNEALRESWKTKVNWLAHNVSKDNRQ
# assay_protocol: Enzyme Assay
readout: IC50 (nM)
Lab book: enter the figure in nM, no units written.

>>> numeric_readout("CN(C)n1c([C@@H]2CCCN2c2ncnc(N)c2C#N)nc2cccc(Cl)c2c1=O")
21
>>> numeric_readout("COC(=O)N1CC[C@H](n2c([C@@H]3CCCN3c3ncnc4[nH]cnc34)nc3cccc(Cl)c3c2=O)C1")
440
>>> numeric_readout("N#Cc1c(C(F)F)nc(N)nc1N1C[C@@H](O)C[C@H]1c1nc2cccc(C(F)(F)F)c2c(=O)n1-c1ccccc1")
220
>>> numeric_readout("COc1ccc(-n2c([C@@H]3CCCN3c3nc(N)nc4[nH]cnc34)nc3cccc(Cl)c3c2=O)cn1")
270
>>> numeric_readout("Cc1nc(N)nc(N2C[C@@H](O)C[C@H]2c2nc3cccc(Cl)c3c(=O)n2-c2cccnc2)c1C#N")
12
>>> numeric_readout("COC(=O)N1CC[C@@H](n2c([C@@H]3CCCN3c3ncnc4[nH]cnc34)nc3cccc(Cl)c3c2=O)C1")
200
>>> numeric_readout("Nc1nc(N2CCC[C@H]2c2nc3cccc(C(F)(F)F)c3c(=O)n2-c2cncc(F)c2)c2nc[nH]c2n1")
160
>>> numeric_readout("CO[C@H]1C[C@@H](c2nc3cccc(Cl)c3c(=O)n2N2CCOCC2)N(c2nc(N)nc(C)c2C#N)C1")
23
>>> numeric_readout("O=c1c2c(Cl)cccc2nc([C@@H]2CCCN2c2ncnn3ccnc23)n1-c1ccccc1")
34
>>> numeric_readout("Cc1nc(N)nc(N2C[C@@H](F)C[C@H]2c2nc3cccc(C(F)(F)F)c3c(=O)n2-c2ccccc2)c1C#N")
10

State its IC50 for this compound: Cc1nc(N)nc(N2C[C@@H](O)C[C@H]2c2nc3ccc(F)c(Cl)c3c(=O)n2-c2ccccc2)c1C#N 13

State its IC50 for this compound: CS(=O)(=O)N[C@H]1C[C@@H](c2nc3cccc(Cl)c3c(=O)n2-c2ccccc2)N(c2ncnc3[nH]cnc23)C1 4

State its IC50 for this compound: CN(C)n1c([C@@H]2CCCN2c2nc(N)nc3[nH]cnc23)nc2cccc(Cl)c2c1=O 110

State its IC50 for this compound: Cc1nc(N)nc(N2C[C@@H](O)C[C@H]2c2nc3cccc(C(F)(F)F)c3c(=O)n2-c2cc(F)cc(F)c2)c1C#N 97

State its IC50 for this compound: Cc1nc(N)nc(N2C[C@@H](F)C[C@H]2c2nc3cccc(C(F)(F)F)c3c(=O)n2-c2cccc(F)c2)c1C#N 14
